// provenance: ChEMBL document CHEMBL1122441

- Test system: Epidermophyton floccosum
- ASSAY_INFO: Antifungal activity against Epidermophyton floccosum, activity expressed as minimum inhibitory concentration (ug/mL)
- Assay type: functional
- TEST_SETTINGS: Epidermophyton floccosum; read-out: MIC
TEST_READOUT: MIC (µg/mL)
One number for each entry, in µg/mL.

compound="COc1ccc(C[C@H]2NC[C@H](O)[C@H]2OC(C)=O)cc1 (racemic) [ANISOMYCIN]" test_readout=MIC unit_annotation=µg/mL test_value=32
compound=CC(=O)O[C@@H]1[C@@H](O)CN[C@@H]1Cc1ccc(C)cc1 test_readout=MIC unit_annotation=µg/mL test_value=16

As a next step, examine the compound that follows.
Request: Return reported MIC; argument: `CC(=O)O[C@@H]1[C@@H](O)CN[C@@H]1Cc1ccccc1`
Response: 32

====

- System: Bacteroides fragilis
- ASSAY_INFO: Antibacterial activity against Bacteroides fragilis, activity expressed as […] inhibitory zone (mm, diameter)
- Type: functional
For each record, write down the corresponding Inhibitory zone.
Give bare numbers, in mm.

molecule=Cc1ncc([N+](=O)[O-])n1CCO test_readout="Inhibitory zone" unit_annotation=mm test_value=20
molecule=COc1cccc(C[C@H]2NC[C@H](O)[C@H]2OC(C)=O)c1 test_readout="Inhibitory zone" unit_annotation=mm test_value=10
molecule="COc1ccc(C[C@H]2NC[C@H](O)[C@H]2OC(C)=O)cc1 (racemic) [ANISOMYCIN]" test_readout="Inhibitory zone" unit_annotation=mm test_value=0
molecule=CC(=O)O[C@@H]1[C@@H](O)CN[C@@H]1Cc1ccc(C)cc1 test_readout="Inhibitory zone" unit_annotation=mm test_value=0
molecule=CC(=O)O[C@@H]1[C@@H](O)CN[C@@H]1Cc1ccccc1 test_readout="Inhibitory zone" unit_annotation=mm test_value=0

Dear colleague, could you please provide Inhibitory zone for the molecules listed below?
1. COc1ccc(C(c2ccccc2)[C@H]2NC[C@H](O)[C@H]2OC(C)=O)cc1 (some centres undefined)
2. COc1ccc(C(C)[C@H]2NC[C@H](O)[C@H]2OC(C)=O)cc1 (some centres undefined)
3. COc1ccccc1C[C@H]1NC[C@H](O)[C@H]1OC(C)=O
4. COc1ccc(C[C@H]2NC[C@H](O)[C@H]2OC(C)=O)cc1 [ANISOMYCIN]

Response:
[0, 24, 0, 10]

====

- System: Tritrichomonas suis
- ASSAY_INFO: Antiprotozoal activity measured as the conc for <[…]% inhibition of Trichomonas foetus
- Type: functional, organism-based
For each record, write down the corresponding Concentration.
One number for each entry, in µg/mL.

Example cases with answers are listed next.
compound="COc1ccc(C[C@H]2NC[C@H](O)[C@H]2OC(C)=O)cc1 (racemic)" test_value=1
compound=CC(=O)O[C@@H]1[C@@H](O)CN[C@@H]1Cc1ccccc1 test_value=2
compound=Cc1ncc([N+](=O)[O-])n1CCO test_value=0.12
compound=COc1ccc(C[C@H]2NC[C@H](O)[C@H]2OC(C)=O)cc1 test_value=0.25
compound="COc1ccc(C(c2ccccc2)[C@H]2NC[C@H](O)[C@H]2OC(C)=O)cc1 (stereo partly drawn)" test_value=16
compound=COc1cccc(C[C@H]2NC[C@H](O)[C@H]2OC(C)=O)c1 test_value=8
compound=CC(=O)O[C@@H]1[C@@H](O)CN[C@@H]1Cc1ccc(C)cc1 test_value=0.5

As a next step, examine the compound that follows.
Request: Return reported Concentration; argument: COc1ccc(C(C)[C@H]2NC[C@H](O)[C@H]2OC(C)=O)cc1 (stereo partly drawn)
Response: 32
